Target: Tyrosine-protein kinase ABL1 (Homo sapiens)
Conditions: Compound concentration 20.0 uM, Protein concentration 2.0 uM, Result type QC Liability
Description: Thermal Shift Assay. Domain: start/stop: S229-K512
Recorded Endpoint: ΔTm (°C)

Compound | Recorded Endpoint | Recorded Number
Clc1cccc(Nc2nccc(NCCCN3CCOCC3)n2)c1 | ΔTm | 1.3
CC(C)N(CCCCOCC(=O)O)c1cnc(-c2ccccc2)c(-c2ccccc2)n1 | ΔTm | 0.75
CSc1ccc(C[C@@H](C)C(=O)O)cc1Nc1nc(N2CC[C@H](N(C)C)C2)cc(C(F)F)c1C#N | ΔTm | 0.42
CN(CC(=O)Nc1ccc(F)c(F)c1F)C(=O)c1ccc2c(c1)OCCO2 | ΔTm | 0.3
CCNC1=N[C@@H]2[C@@H](O)[C@H](O)[C@@H](CO)O[C@@H]2S1 | ΔTm | 0.07
CCCCCNC(=O)N1CCC(CN(Cc2ccc(Cl)cc2)Cc2ccc([N+](=O)[O-])s2)C1 (centres undefined) | ΔTm | 0.03
COc1cc(-c2nn([C@H]3CC[C@H](N4CCN(C(C)=O)CC4)CC3)c3ncnc(N)c23)ccc1NC(=O)c1cc2ccccc2n1C | ΔTm | 14.2
CC(C)c1nc2c(c3c1[C@@H](c1ccc(C(F)(F)F)cc1)OC31CCOCC1)[C@@H](O)CC(C)(C)C2 | ΔTm | -0.41
O=C(CNC(=O)c1ccc(-c2ccccc2)cc1)NC1CCCc2ccccc21 (centres undefined) | ΔTm | 0.75

Data origin, for the record: ChEMBL document CHEMBL5308504
